assay: Partition coefficient (logP); assay type: physicochemical; conditions: octanol/water
# key: entry, value: logP
Lab note: record just the number, no unit beside it.

CSc1ccc(Cl)c(NC(=N)N(C)c2cccc(I)c2)c1: 2.91
CN(C(=N)Nc1cccc2ccccc12)c1cccc(F)c1: 2.31
CN(C(=N)Nc1cccc2ccccc12)c1cccc(I)c1: 2.94

Lab book: logP of CSc1cccc(N(C)C(=N)Nc2cc(SC)ccc2Cl)c1 [CNS-5161] noted as 2.68

logP for CSc1ccc(Cl)c(NC(=N)N(C)c2cc(C)cc(C)c2)c1 is 3.12

Quick note, logP for COc1cccc(N(C)C(=N)Nc2cc(SC)ccc2Cl)c1 landed at 2.34

Briefly, logP measured for Cc1cc(C)cc(N(C)C(=N)Nc2cccc3ccccc23)c1 : 2.94

Just so you know, measured logP for CSc1ccc(Cl)c(NC(=N)N(C)c2cccc(F)c2)c1 came out at 2.34

Documented logP of CCc1cccc(N(C)C(=N)Nc2cc(SC)ccc2Cl)c1 : 3

get_value(item= COc1cccc(N(C)C(=N)Nc2cccc3ccccc23)c1 , readout=logP) returns 2.26

* * *

target: Glutamate NMDA receptor; test: In vitro binding to N-methyl-D-aspartate glutamate receptor using [3H]MK-801 (1 nM) and rat brain membrane suspensions
pKi: −log10 of the molar value.
Criterion: pKi meeting or surpassing 8. Met: met. Not met: not met.

See these solved cases before continuing.
CN(C(=N)Nc1cccc2ccccc12)c1cccc(F)c1: not met
COc1cccc(N(C)C(=N)Nc2cccc3ccccc23)c1: not met
CSc1cccc(N(C)C(=N)Nc2cc(SC)ccc2Cl)c1 [CNS-5161]: met
Cc1cc(C)cc(N(C)C(=N)Nc2cccc3ccccc23)c1: not met
CSc1ccc(Cl)c(NC(=N)N(C)c2cccc(I)c2)c1: met
COc1cccc(N(C)C(=N)Nc2cc(SC)ccc2Cl)c1: met

Consider the additional molecule presented here.
Determine whether measured pKi meets or exceeds 8 for CN(C(=N)Nc1cccc2ccccc12)c1cccc(I)c1
met

Data provenance is ChEMBL document CHEMBL1135142.
